test system: ipsilateral (ischemic) hemisphere of a brain; assay: In vivo screening of phage-displayed CX7C peptide library, frequency of selected clones; conditions: 30 phage clones randomly selected in second and third rounds, rat with occluded MCA

[
  {
    "biopolymer-sequence": "CTKRNAPDC (Stroke-targeting peptide 4)",
    "Frequency (%)": "(10%)"
  },
  {
    "biopolymer-sequence": "CLEVSRKNC (Stroke-targeting peptide 1)",
    "Frequency (%)": "(30%)"
  },
  {
    "biopolymer-sequence": "CKRGGATAC (Stroke-targeting peptide 2)",
    "Frequency (%)": "(23%)"
  },
  {
    "biopolymer-sequence": "CRSAVAKNC (Stroke-targeting peptide 3)",
    "Frequency (%)": "(17%)"
  }
]
